target: cyno B7-H3; assay: Biacore T200 SPR binding kinetics, mAb capture, soluble ECD of cyno B7-H3; parameters: species or system cynomolgus monkey; settings: 1:1 binding model
Sequence (as listed by the source): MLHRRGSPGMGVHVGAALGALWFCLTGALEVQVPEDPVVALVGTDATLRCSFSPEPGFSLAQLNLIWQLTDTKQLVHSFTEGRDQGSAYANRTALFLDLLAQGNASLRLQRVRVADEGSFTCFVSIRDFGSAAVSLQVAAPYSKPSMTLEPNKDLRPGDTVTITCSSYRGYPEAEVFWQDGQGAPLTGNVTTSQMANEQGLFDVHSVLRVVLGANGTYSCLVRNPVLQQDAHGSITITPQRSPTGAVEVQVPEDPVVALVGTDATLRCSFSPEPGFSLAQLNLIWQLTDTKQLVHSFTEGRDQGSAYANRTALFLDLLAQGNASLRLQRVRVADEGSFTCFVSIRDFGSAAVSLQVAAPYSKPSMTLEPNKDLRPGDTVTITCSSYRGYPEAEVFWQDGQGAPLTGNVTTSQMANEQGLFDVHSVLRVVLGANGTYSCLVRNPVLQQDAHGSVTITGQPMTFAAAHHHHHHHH
MEASURED PARAMETER: kd (1/s) cynoB7-H3 (s⁻¹)

>>> measured("Ab17: mouse hybridoma derived anti-B7-H3 monoclonal antibodies (mAbs) (antibody, V domains shown) VH: EVKLVESGGGLVQPGGSLKLSCAASGFTFSSYIMSWVRQTPEKRLEWVASIVSSNITYYPDSMKGRFTISRDNARNILYLQMSSLKSEDTAMYYCARSGTRAWFAYWGQGTLVTVSA VL: DIVLTQSPASLAVSLGQRATISCRASKSVSTSAYSYMHWYQQKPGQPPKLLIYLASNLESGVPARFSGSGSGTDFTLNIHPVEEEDAATYYCQHSRELPYTFGGGTKLEIK")
"1e-05"
>>> measured("Ab10: mouse hybridoma derived anti-B7-H3 monoclonal antibodies (mAbs) (antibody, V domains shown) VH: DVQLQESGPGLVKPSQSLSLTCTVTGYSITSDYAWNWIRQFPGNRLEWMGHINYSGITNYNPSLKSRISITRDTSKNQFFLQLYSVTTEDTATYFCARRSLFYYYGSSLYAMDYWGQGTSVTVSS VL: DVVMTQSPFSLPVSLGDQASISCRSSQSLVHSNGNTYLHWYLQKPGQSPKLLIYKVSNRFSGVPDRFSGSGSGTDFTLKISRVEAEDLGVYFCSQSTHVPWTFGGGTKLEIK")
0.0042
>>> measured("Ab2: mouse hybridoma derived anti-B7-H3 monoclonal antibodies (mAbs) (antibody, V domains shown) VH: QVQLQQPGAELVKPGASVKLSCKASGYTFTSYWMHWVKQRPGQGLEWIGMIHPDSGTTNYNEKFRSKATLTVDKSSSTAYMQLSSLTSEDSAVYYCAVYYGSTYWYFDVWGTGTTVTVSS VL: DVVMTQTPLSLPVSLGDQAYISCRSSQSLVHINGNTYLHWYRQKPGQSPKLLIYKVSNRFSGVPDRFSGSGSGTDFTLKISRVEAEDLGVYFCSQSTHFPFTFGSGTKLEIK")
0.011
>>> measured("Ab16: mouse hybridoma derived anti-B7-H3 monoclonal antibodies (mAbs) (antibody, V domains shown) VH: EVKLLESGGGLVQPGGSLKLSCAASGFDFSRYWMSWVRQAPGKGLEWIGEINPDSSTINYTPSLKDKFIISRDNAKNTLYLQMSKVRSEDTALYYCARPGFGNYIYAMDYWGQGTSVTVSS VL: DIQMTQTTSSLSASLGDRVTINCRASQDISNFLNWYQQKPDGTVKLLIYYTSRLYLGVPSRFSGSGSGTDYSLTISNLEQEDIATYFCQQGNTLPPTFGGGTKLEIK")
0.0056
>>> measured("Ab6: mouse hybridoma derived anti-B7-H3 monoclonal antibodies (mAbs) (antibody, V domains shown) VH: QVQLQQSGAELMKPGASVKISCKATGYTFSRYWIEWVKQRPGHGLEWIGEILPGSGSTNYNEKFKGKATFTADTSSNTAYMQVSSLTSEDSAVHYCARRGYGYVPYALDYWGQGTSVTVSS VL: EIQMTQTTSSLSASLGDRVTISCRASQDISNSLNWYQQKPDGTVNLLIYYTSRLYSGVPSRFSGSGSGTDYSLTISNLEQEDIATYFCQQGNTLPYTFGGGTKLEIK")
0.012
>>> measured("Ab8: murine anti-B7-H3 mAbs; mouse hybridoma derived (antibody, V domains shown) VH: EVKLVESGGGLVKPGGSLKLSCAASGFTFSSYGMSWVRQTPEKRLEWVATISGGGNYTYCPDSVKGRFTISRDNAKNNLYLQMSSLRSEDTALYYCTRQRGYDYHYAMDFWGQGTSVTVSS VL: DIQMTQSPASLSVSVGETVTITCRASENIYSNLAWHQQKQGKSPQLLVYAATNLADGVPSRFSGNGSDTQYSLKINSLQSEDFGSYFCQNFWGTSWTFGGGTKLEIK")
0.00026
>>> measured("Ab5: murine anti-B7-H3 mAbs; mouse hybridoma derived (antibody, V domains shown) VH: QVQLQQPGDELVKPGASVKLSCKTSGYTFTTDWMHWVKQRPGQGLEWIGMIHPNSGTTNYNEKFKSKAALTVDKSSSTACMQLSSLTSEDSAVYYCARSYWKWYFDVWGTGTTVTVSS VL: QIVLTQSPAIMSASLGEEITLTCSASSSVSYMHWYQQKSGTSPKLLIYSTSNLASGVPSRFSGSGSGTFYSLTISSVEAEDSADYYCHQWTSYMYTFGGGTKLEIK")
0.28
>>> measured("Ab12: murine anti-B7-H3 mAbs; mouse hybridoma derived (antibody, V domains shown) VH: EVQLVESGGGLVKPGGSLKLSCAASGFTFSSYAMSWVRQTPEKRLEWVATISSGTNYTYYPDSVKGRFTISRDNAKNTLYLQMTSLRSEDTAMYYCARQGRYSWIAYWGQGTLVTVSA VL: DIVLTQSPASLAVSLGQRATISCRASKSVSTSDYSYMHWNQQKPGQPPKLLIYLASNLESGVPARFSGSGSGTDFTLNIHPVEEEDAATYYCQHSRELLTFGAGTKLELK")
"1e-05"

Origin of the recorded values: patent US20200338209A1
